target: Hepatocyte growth factor receptor (Homo sapiens, UniProt P08581); test: Inhibition of MET (unknown origin)
Sequence (P08581 whole entry): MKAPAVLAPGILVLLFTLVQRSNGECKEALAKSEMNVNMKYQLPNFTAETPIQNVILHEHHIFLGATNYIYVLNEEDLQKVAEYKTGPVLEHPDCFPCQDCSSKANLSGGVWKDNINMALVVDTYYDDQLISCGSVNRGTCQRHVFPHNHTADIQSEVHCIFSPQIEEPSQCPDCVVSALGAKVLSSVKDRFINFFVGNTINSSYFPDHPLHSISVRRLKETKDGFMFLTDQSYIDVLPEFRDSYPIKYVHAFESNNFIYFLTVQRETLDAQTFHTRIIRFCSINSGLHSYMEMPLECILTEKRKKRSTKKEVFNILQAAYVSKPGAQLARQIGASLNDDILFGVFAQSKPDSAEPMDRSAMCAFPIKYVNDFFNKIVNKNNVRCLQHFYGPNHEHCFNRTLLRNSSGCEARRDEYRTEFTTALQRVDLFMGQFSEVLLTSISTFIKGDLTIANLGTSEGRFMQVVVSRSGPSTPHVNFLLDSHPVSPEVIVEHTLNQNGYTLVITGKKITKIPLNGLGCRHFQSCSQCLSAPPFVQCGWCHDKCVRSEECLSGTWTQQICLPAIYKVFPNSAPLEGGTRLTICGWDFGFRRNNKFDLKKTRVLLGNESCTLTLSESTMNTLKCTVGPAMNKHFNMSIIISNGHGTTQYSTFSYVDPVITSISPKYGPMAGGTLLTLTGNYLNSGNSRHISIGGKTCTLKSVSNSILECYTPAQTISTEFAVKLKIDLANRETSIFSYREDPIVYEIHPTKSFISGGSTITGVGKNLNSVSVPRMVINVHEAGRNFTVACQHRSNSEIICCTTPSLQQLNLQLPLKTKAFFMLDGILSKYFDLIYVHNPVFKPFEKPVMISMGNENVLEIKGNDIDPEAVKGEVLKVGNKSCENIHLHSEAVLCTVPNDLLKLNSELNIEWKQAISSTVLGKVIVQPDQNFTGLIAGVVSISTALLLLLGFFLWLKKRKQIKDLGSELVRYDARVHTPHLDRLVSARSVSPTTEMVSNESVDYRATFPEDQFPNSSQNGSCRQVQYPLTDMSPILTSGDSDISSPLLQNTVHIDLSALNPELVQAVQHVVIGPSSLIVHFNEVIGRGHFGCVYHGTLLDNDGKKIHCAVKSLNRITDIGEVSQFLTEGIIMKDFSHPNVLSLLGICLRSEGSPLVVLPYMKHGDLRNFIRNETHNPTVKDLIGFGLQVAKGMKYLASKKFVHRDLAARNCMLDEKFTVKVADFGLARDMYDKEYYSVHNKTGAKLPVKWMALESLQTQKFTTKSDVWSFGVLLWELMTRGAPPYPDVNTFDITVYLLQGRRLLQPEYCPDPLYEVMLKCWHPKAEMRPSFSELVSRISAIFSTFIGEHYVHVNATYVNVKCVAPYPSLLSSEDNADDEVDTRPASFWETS
pIC50: −log10 of the molar value.
Measurement Type: pIC50

>>> reported_value("COc1ccc2c(Oc3ccc(NC(=O)c4c(C)n(CC(C)(C)O)n(-c5ccccc5)c4=O)nc3)ccnc2c1")
8.70

---

assay: Metabolic stability in rat liver microsomes assessed as half life; assay type: ADME, Microsome
Measurement Type: half-life (min)

>>> reported_value("C[C@H](c1cccc(-c2ncc(OCC3CCN(C)CC3)cn2)c1)n1cc(-c2cc(C#N)ccn2)cc(F)c1=O")
36.5

---

test: Metabolic stability in human liver microsomes assessed as half life; format: ADME, Microsome
Measurement Type: half-life

>>> reported_value("C[C@H](c1cccc(-c2ncc(OCC3CCN(C)CC3)cn2)c1)n1cc(-c2cc(C#N)ccn2)cc(F)c1=O")
"1.03 h"

---

Collected IC50 values appear next to each entry.
system: SNU-5; experiment: cells; details: Homo sapiens
Measurement Type: IC50 (nM)

>>> reported_value("CN1CCN(Cc2ccc(-c3cnc(N4CCOC(Cn5nnc6ncc(-c7cnn(C)c7)nc65)C4)nc3)cc2)CC1 (centres undefined)")
4.34
>>> reported_value("CN1CCN(C2CCN(C(=O)Nc3cc(Oc4ccc(NC(=O)C5(C(=O)Nc6ccc(F)cc6)CC5)c(F)c4)ccn3)CC2)CC1")
6.2
>>> reported_value("CCN1Cc2c(ccc(F)c2C#N)O[C@@H](C)CNC(=O)c2c(N)nn3ccc1nc23 [ELZOVANTINIB]")
0.17
>>> reported_value("Cc1c(C(=O)Nc2ccc(Oc3ccnc4cc(OCC(C)(C)O)ccc34)c(F)c2)c(=O)n(-c2ccccc2)n1C")
60

---

test system: CT26; test: Antiproliferative activity against CT26 cells assessed as inhibition of cell growth; assay type: functional, cell-based; conditions: Mus musculus
pIC50: −log10 of the molar value.
Measurement Type: pIC50

>>> reported_value("COc1cc2c(Oc3ccc(-c4cnc(Nc5ccc(F)cc5)n(C)c4=O)nc3)ccnc2cc1OCCCN1CCOCC1")
7.23

---

tested on: MKN-45; experiment: Antiproliferative activity against human MKN-45 cells assessed as inhibition of cell growth measured after 72 hrs by CellTiter-Glo assay; format: functional, cell-based; settings: MKN-45, 72 h
Property: IC50; scope: individual compounds
Measurement Type: IC50 (µM)

>>> reported_value("[O-][S+](c1c(Cl)ccc(F)c1Cl)c1c[nH]c2ncc(-c3cnn(C4CCNCC4)c3)cc12 (configuration not stated)")
1.49
>>> reported_value("Fc1ccc(Cl)c(C2(c3n[nH]c4ncc(-c5cnn(C6CCNCC6)c5)cc34)CC2)c1Cl")
0.67
